Data origin, for the record: ChEMBL document CHEMBL3091371

Let's look at some molecules and their measured log10 of MIC.
# System: Staphylococcus epidermidis
# TEST DETAILS: Antibacterial activity against methicillin-resistant Staphylococcus epidermidis clinical isolate shhs-E1 by broth microdilution method
# Type: functional
Base-10 log of MIC, unit mg/L.

C=C1CCCC(C)(C)C1CC[C@]1(C)c2c(O)cc3c(c2O[C@@H]1CO)C(=O)C=C(OC)C3=O (stereo partly drawn)	0.90

stdin: Name the recorded log10 of MIC for C=C1CCCC(C)(C)C1CC[C@]1(C)c2c(O)cc3c(c2O[C@@H]1C)C(=O)C=C(OC)C3=O (stereo partly drawn) .
stdout: 1.51

stdin: Name the recorded log10 of MIC for "COc1cccc2nc3c(OC/C=C(\C)CCC=C(C)C)cccc3nc12" .
stdout: 2.11

stdin: Name the recorded log10 of MIC for "NC[C@H]1O[C@H](O[C@H]2[C@H](O)[C@@H](O[C@H]3O[C@H](CO)[C@@H](O)[C@H](N)[C@H]3O)[C@H](N)C[C@@H]2N)[C@H](O)[C@@H](O)[C@@H]1O" .
stdout: 2.11

stdin: Name the recorded log10 of MIC for "CC1(C)S[C@@H]2[C@H](NC(=O)[C@H](N)c3ccccc3)C(=O)N2[C@H]1C(=O)O" .
stdout: 0.30

stdin: Name the recorded log10 of MIC for "CC(C)=CCC/C(C)=C/COc1cccc2nc3c(O)cccc3nc12" .
stdout: 2.11

stdin: Name the recorded log10 of MIC for C=C1CCCC(C)(C)C1CC[C@@]1(C)c2c(O)cc3c(c2O[C@@H]1CO)C(=O)C=C(OC)C3=O (stereo partly drawn) .
stdout: 0.90

stdin: Name the recorded log10 of MIC for C=C1CCCC(C)(C)C1CC[C@@]1(C)c2c(O)cc3c(c2O[C@@H]1C)C(=O)C=C(OC)C3=O (stereo partly drawn) .
stdout: 1.81

* * *

Let's look at some compounds and their measured MIC.
# Tested on: Staphylococcus aureus
# TEST DETAILS: Antibacterial activity against Staphylococcus aureus ATCC 29213 by broth microdilution method
# Format: functional
State the answer as a number, implicitly in µg/mL.

Use these answered entries as a reference point.
C=C1CCCC(C)(C)C1CC[C@@]1(C)c2c(O)cc3c(c2O[C@@H]1C)C(=O)C=C(OC)C3=O (stereo partly drawn)	8
COc1cccc2nc3c(OC/C=C(\C)CCC=C(C)C)cccc3nc12	128
C=C1CCCC(C)(C)C1CC[C@]1(C)c2c(O)cc3c(c2O[C@@H]1CO)C(=O)C=C(OC)C3=O (stereo partly drawn)	8

stdin: Name the recorded MIC for NC[C@H]1O[C@H](O[C@H]2[C@H](O)[C@@H](O[C@H]3O[C@H](CO)[C@@H](O)[C@H](N)[C@H]3O)[C@H](N)C[C@@H]2N)[C@H](O)[C@@H](O)[C@@H]1O [KANAMYCIN] .
stdout: 0.5

stdin: Name the recorded MIC for "CC(C)=CCC/C(C)=C/COc1cccc2nc3c(O)cccc3nc12" .
stdout: 128

stdin: Name the recorded MIC for C=C1CCCC(C)(C)C1CC[C@@]1(C)c2c(O)cc3c(c2O[C@@H]1CO)C(=O)C=C(OC)C3=O (stereo partly drawn) .
stdout: 8

stdin: Name the recorded MIC for CC1(C)S[C@@H]2[C@H](NC(=O)[C@H](N)c3ccccc3)C(=O)N2[C@H]1C(=O)O [AMPICILLIN] .
stdout: 0.5

stdin: Name the recorded MIC for C=C1CCCC(C)(C)C1CC[C@]1(C)c2c(O)cc3c(c2O[C@@H]1C)C(=O)C=C(OC)C3=O (stereo partly drawn) .
stdout: 64
